Every entry's value here was drawn from PubChem BioAssay (NCI).

- System: HCT-116 colon
- TEST: NCI-60 one-dose screen, 48 h (100 = growth as untreated, 0 = no growth, -100 = all killed)
- CONDITION_SUMMARY: 10 µM unless noted
About 83,000 compounds went through this panel and 20% of them were active in at least one assay; those are over-represented in the sample as a whole.
// values below are reported growth
ASSAY_METRIC: growth (%)

test_smiles=Cc1cccc2sc(/N=C(\N)C(Cl)(Cl)Cl)nc12 unit_spec=% reported=101
test_smiles=Cc1ccc(/C=C/c2nn3c(-c4ccco4)nnc3s2)cc1C unit_spec=% reported=109
test_smiles=COC(=O)c1ccc(NC(=S)N2CCc3ccc([N+](=O)[O-])cc3C2)cc1O unit_spec=% reported=117
test_smiles=Cc1ccc(CNS(=O)(=O)/N=C2\NC(=O)NC2=C(Cl)Cl)cc1 unit_spec=% reported=9.17
test_smiles=CS(=O)(=O)c1ccc(-c2nc3ccccn3c2-c2nc3ccc([N+](=O)[O-])cc3[nH]2)cc1 unit_spec=% reported=97
